Where do these numbers come from? They come from paper PMC8988011.

# tested.on: LATS1 (Homo sapiens, UniProt O95835)
# Sequence (O95835 589-1130 limits assumed): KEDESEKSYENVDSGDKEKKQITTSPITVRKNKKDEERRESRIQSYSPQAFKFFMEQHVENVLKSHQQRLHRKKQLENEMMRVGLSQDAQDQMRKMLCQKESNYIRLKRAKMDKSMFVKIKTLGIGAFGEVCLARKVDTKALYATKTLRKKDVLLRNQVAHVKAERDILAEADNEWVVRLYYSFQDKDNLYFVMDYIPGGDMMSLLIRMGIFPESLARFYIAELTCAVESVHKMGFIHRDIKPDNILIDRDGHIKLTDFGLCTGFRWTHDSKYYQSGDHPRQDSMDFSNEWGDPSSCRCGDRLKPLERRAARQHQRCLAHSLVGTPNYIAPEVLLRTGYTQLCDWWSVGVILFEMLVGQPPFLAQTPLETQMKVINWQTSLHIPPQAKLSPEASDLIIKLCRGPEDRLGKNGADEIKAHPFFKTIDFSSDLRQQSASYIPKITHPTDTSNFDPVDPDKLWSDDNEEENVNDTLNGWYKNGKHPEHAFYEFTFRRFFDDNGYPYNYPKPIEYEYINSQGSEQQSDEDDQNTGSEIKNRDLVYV
# assay.overview: Kinase assay
# Assay type: biochemical
measured.parameter: pIC50
Convention used: pIC50 is expressed as -log10 of the molar concentration.

Inquiry: Dear colleague, I am looking for the recorded pIC50 of the following compound: CC/C(=N\NC(=O)NCc1cccc(O)c1)c1ccc(O)c(C)c1O
Reply text: 8.39

----------
# tested.on: p70S6K (Homo sapiens, UniProt P23443)
# Sequence (P23443 whole entry): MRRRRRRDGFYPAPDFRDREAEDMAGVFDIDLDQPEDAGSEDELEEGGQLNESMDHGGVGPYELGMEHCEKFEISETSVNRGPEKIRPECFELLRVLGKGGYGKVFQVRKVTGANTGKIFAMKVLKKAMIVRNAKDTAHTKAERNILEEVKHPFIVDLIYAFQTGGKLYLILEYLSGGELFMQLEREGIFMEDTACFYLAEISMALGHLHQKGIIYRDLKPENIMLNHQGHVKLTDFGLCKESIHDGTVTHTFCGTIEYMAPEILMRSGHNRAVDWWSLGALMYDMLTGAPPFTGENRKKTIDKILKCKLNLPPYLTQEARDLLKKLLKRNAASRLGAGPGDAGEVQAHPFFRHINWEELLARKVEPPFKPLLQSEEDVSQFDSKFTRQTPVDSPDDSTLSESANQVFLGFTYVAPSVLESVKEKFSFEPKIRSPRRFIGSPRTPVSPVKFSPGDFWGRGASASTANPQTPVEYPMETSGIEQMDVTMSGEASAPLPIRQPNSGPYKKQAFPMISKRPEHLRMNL
# assay.overview: Kinase panel assay
# Format: biochemical
pIC50: −log10 of the molar value.
measured.parameter: pIC50

Inquiry: Dear colleague, I am looking for the recorded pIC50 of the following compound: CC/C(=N\NC(=O)NCc1cccc(O)c1)c1ccc(O)c(C)c1O [GA-017]
Reply text: > 7.40
